- Subject Of Test: K-Ras^G12C : hSOS1 interaction (Homo sapiens, UniProt Q07889)
- Experimental Protocol: Biochemical assay 1: K-Ras^G12C interaction assay with hSOS1 (HTRF)
- Format: binding
- Particulars: read-out: Assay 1 (KRAS-SOS Interaction) activity expressed as IC50
pIC50: −log10 of the molar value.
So basically: pIC50 at 6 or higher? That is t. Lower than 6? That is f.

Q. Does COc1cc2nc(C)nc(NC(C)c3ccc(-c4ccccc4CN4CCC[C@H]4CN(C)C)s3)c2cc1OC (stereo partly shown) have a reported pIC50 of at least 6?
A. t

Q. Does COc1cc2nc(C)nc(N[C@@H](C)c3ccc(-c4ccc(S(C)(=O)=O)cc4)s3)c2cc1OC (racemic) have a reported pIC50 of at least 6?
A. f

Q. Does COc1cc2nc(C)nc(N[C@@H](C)c3ccc(-c4cncc(S(C)(=O)=O)c4)s3)c2cc1OC (racemic) have a reported pIC50 of at least 6?
A. f

Q. Does COc1cc2nc(C)nc(NC(C)c3ccc(-c4ccc(F)cc4CNC(=O)[C@@H]4CCCN4)s3)c2cc1OC (stereo partly shown) have a reported pIC50 of at least 6?
A. t

Q. Does COc1cc2nc(C)nc(NC(C)c3ccc(-c4cnc5n4CCC5)s3)c2cc1OC (single isomer, unassigned; enantiomer 2) [Example 329] have a reported pIC50 of at least 6?
A. f
